tested on: SNB-19; test: NCI tumour cell line growth inhibition, 48 h
The source made the active and inactive calls. Rule as the data show it: active = GI50 up to about 1.1 µM and inactive = higher.
// allowed return values: active, inactive

CCN(CC)CCC(=O)c1ccc(C)cc1	inactive
CN(CCNC(=O)c1nn(-c2ccccc2)c2c1Cc1ccccc1-2)CCNC(=O)c1nn(-c2ccccc2)c2c1Cc1ccccc1-2	inactive
O=C1CCc2cc3c(cc21)CC1(Cc2ccccc2C1)C3	inactive
COC(=O)C1(N2CCOCC2)CCC([C@@H](c2ccccc2)C(C)[N+](=O)[O-])C1 (stereo not given in full)	inactive
N/C(=N\n1c(=S)[nH]c2ccccc2c1=O)Nn1c(=S)[nH]c2ccccc2c1=O	inactive

Q: Given `O=C(O)CN(c1ccccc1)S(=O)(=O)c1ccc(Cl)cc1` , state the outcome it received in this test.
Ans: inactive

Q: For COc1ccc(C2=Nc3c(nc(SC)[nH]c3=O)NC(c3ccccc3)C2)cc1 (stereo not given) , which call appears in the assay record?
Ans: inactive

Q: Test call, this compound: COc1cc2c3c(c1OC)C1(C=CC(=O)C=C1)CC3NCC2 (stereo not given)
Ans: inactive

Q: Each compound tested received a call. Report the one for CC(=O)C1=CCC2c3[nH]c4ccccc4c3CCN2C1 (stereo not given) .
Ans: inactive

Q: Test call for this compound, please: `Cc1ccc(C)c2c1C/C(=C\c1ccccc1C(=O)O)C2=O`
Ans: inactive

Q: Just curious, what result did `c1ccc(P(CCP(c2ccccn2)c2ccccn2)c2ccccc2)cc1` get here?
Ans: active

Q: Status in this test for O=[N+]([O-])c1ccc(/C=N/CC2CCCN3CCCCC23)cc1 (stereo not given) ?
Ans: inactive

Q: GET /call?item= `CC1=C(C)C(=O)O[C@@H]([C@](C)(O)[C@]2(O)CC[C@@]3(O)[C@@H]4C[C@H](O)[C@]5(O)[C@@H](O)C=CC(=O)[C@]5(C)[C@H]4CC[C@]23C)C1` returns the recorded outcome of this test.
Ans: inactive

Q: Which outcome did this test record for the compound `Cc1ccccc1N1C(=O)/C(=C/c2ccc(N(CCC#N)CCC#N)cc2)N=C1c1cc([N+](=O)[O-])ccc1Cl` ?
Ans: inactive

Q: Short answer needed: outcome of this test for `COc1ccc(-c2oc3cc(O)cc(O)c3c(=O)c2OC)cc1` ?
Ans: inactive

Q: Dear colleague, could you share the recorded outcome for `Cc1ccc(O)cc1.Cc1cccc(O)c1.Cc1ccccc1O` when you have a moment?
Ans: inactive

Q: For O=C(/C=C/c1ccc(O)c(O)c1)OCC(OC(=O)/C=C/c1ccc(O)c(O)c1)C(=O)O (stereo not given) , what call appears in the results of this test?
Ans: inactive

Q: Write down the call the test reported for this compound. Item: `Cc1cc2c(cc1C)C(=O)/C(=N/Nc1ccc(F)cc1)CCO2`
Ans: inactive

Q: Test call, this compound: COc1ccc2c(c1)CC[C@@H]1C2CC[C@]2(C)OC(=O)CCC12 (stereo not given in full)
Ans: inactive

Q: Outcome? `C1=C\SS/C=C\SS/1`
Ans: inactive
